# assay-comment: Cytotoxic assay
# Assay type: cell-based
# condition-set: human, HeLa cells (human cervix carcinoma)
Starred links: 1 amine or outer side, 2 acyl side, 3 side chain; linkers in the order of their positions; H or OH if unused. Positions of bridges follow the written chain, without caps; N, C: chain ends. Non-standard residues stand in square brackets, D forms with d. Residues, ends and D or L forms follow the SMILES beside them. *: point of attachment. Tetradecanoyl(3R-OH) = CCCCCCCCCCC[C@@H](O)CC(=O)*; X1 = C/C=C(/N[*:1])C(=O)[*:2]; Dhb = C/C=C(\N)C(=O)O
quantity-kind: CC50 (µM)
Express your answer in µM, writing the number without its unit.

Item under review: C/C=C1\NC(=O)[C@@H](Cc2ccc(O)cc2)NC(=O)[C@@H]([C@H](C)O)NC(=O)[C@@H](NC(=O)/C(=C\C)NC(=O)C[C@H](O)CCCCCCCCCCC)[C@@H](C)OC(=O)[C@H](Cc2c[nH]cn2)NC(=O)[C@H]([C@@H](C)O)NC(=O)CNC(=O)[C@@H](CCC(N)=O)NC1=O [jagaricin] ({Tetradecanoyl(3R-OH)}-[X1]T[dT][dY][Dhb][dQ]GTH; ester 2-C) . Reported CC50? 3.8

The reported measurements were obtained from patent US20150210741A1.
